# Measured on: Gamma-secretase subunit PEN-2 (Homo sapiens, UniProt Q9NZ42)
# Sequence (Q9NZ42 whole entry): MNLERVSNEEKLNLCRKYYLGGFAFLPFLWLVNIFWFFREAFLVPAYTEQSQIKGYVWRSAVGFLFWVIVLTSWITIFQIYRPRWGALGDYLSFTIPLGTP
# Test description: Compound required for inhibition of gamma-secretase-mediated formation of Abeta1-42 polypeptide
# Assay type: functional
Endpoint label: ED50

Q: Which ED50 value is on record for `CC(C)C[C@H](NC(=O)[C@H](CN)C[C@@H](O)[C@H](Cc1ccccc1)NC(=O)OC(C)(C)C)C(=O)N[C@@H](Cc1ccccc1)C(N)=O` ?
Ans: > 10 µM

Q: Quick one: ED50 for CCC(C)[C@H](NC(=O)[C@@H](NC(=O)[C@@H](C[C@@H](O[Si](C)(C)C(C)(C)C)[C@H](C)NC(=O)OC(C)(C)C)[C@H](C)O[Si](C)(C)C(C)(C)C)C(C)C)C(N)=O (stereo not given in full) ?
Ans: > 10 µM

Q: For the molecule `CC(C)C[C@H](NC(=O)[C@H](Cc1ccccc1)C[C@@H](O)[C@H](Cc1ccccc1)NC(=O)OC(C)(C)C)C(=O)N[C@@H](Cc1ccccc1)C(N)=O` , what ED50 is on record?
Ans: 0.014 µM

Q: Need ED50 of CCC(C)C(C[C@@H](O[Si](C)(C)C(C)(C)C)[C@@H](NC(=O)OC(C)(C)C)C(C)C)C(=O)N[C@@H](C)C(=O)N[C@H](C(N)=O)C(C)O (stereo not given in full) , thanks.
Ans: > 10 µM

Q: Param item = CC(C)C[C@H](NC(=O)C(CC[C@H](Cc1ccccc1)NC(=O)OC(C)(C)C)Cc1ccccc1)C(=O)N[C@@H](Cc1ccccc1)C(N)=O (stereo not given in full) ; retrieve measured ED50.
Ans: > 10 µM

Q: Any idea what its ED50 is? The molecule is `CC(C)C[C@H](NC(=O)/C(=C/C[C@H](Cc1ccccc1)NC(=O)OC(C)(C)C)Cc1ccccc1)C(=O)N[C@@H](Cc1ccccc1)C(N)=O`
Ans: > 10 µM

Q: Requested read-out: ED50. Entry: CC(NC(=O)[C@H](Cc1ccccc1)C[C@@H](O)[C@H](Cc1ccccc1)NC(=O)OC(C)(C)C)C(=O)N[C@H](C(N)=O)[C@H](C)O (single isomer, unassigned)
Ans: 230 µM

Q: What value of ED50 has been recorded for this entry: `CC[C@H](C)[C@H](NC(=O)[C@@H](NC(=O)[C@H](Cc1ccccc1)C[C@@H](O)[C@H](Cc1ccccc1)NC(=O)OC(C)(C)C)C(C)C)C(N)=O`
Ans: 35 µM

Q: Entry under review: CCC(C)[C@H](NC(=O)[C@@H](NC(=O)[C@@H](C[C@@H](O[Si](C)(C)C(C)(C)C)[C@H](C)NC(=O)OC(C)(C)C)[C@@H](C)O[Si](C)(C)C(C)(C)C)C(C)C)C(N)=O (stereo not given in full) . Reported ED50?
Ans: > 10 µM

Q: Field request: ED50 | item: CCC(C)[C@H](NC(=O)[C@@H](NC(=O)[C@H](C[C@@H](O[Si](C)(C)C(C)(C)C)[C@H](C)NC(=O)OC(C)(C)C)C(C)O[Si](C)(C)C(C)(C)C)C(C)C)C(N)=O (stereo not given in full)
Ans: > 10 µM
